test system: VchCAST RNA-guided transposition machinery (E. coli BL21(DE3) host, lacZ target); assay: relative integration efficiency (T-LR orientation) vs wild-type transposon end (log2 (normalized fold change)); transposon end mutated: left end; higher = more efficient transposition
MEASURED ATTRIBUTE: relative integration efficiency (log2)

ORDERED RESIDUES	COMPARISON OPERATOR	EXPERIMENTAL VALUE
AATGTTGTTGATGCAACCATAAAGTGATATTTAATAATTATTTATACAACCATAAAGTGATATTTAACAACCATATATTGATATCTCACAAAACAACCATAAGTTGATATTTTTGTGAATCGAGTATTTCAGCAAAACTACTGCAGTAAGAA	=	-4.48
AATGTTGTTGATGCAACCATAAAGTGATATTTAATAATTATTTATCAACCATATATTGATATCTCAATCAGCAACTTAACCACAAAAACAAAACAACCATAAGTTGATATTTTTGTGAATCGAGTATTTCAGCAAAACTACTGCAGTAAGAA	=	-2.91
AATGTTGTTGATGCAACCATAAAGTGATATTTAATAATTATTCAACCATATATTGATATCTCACAAAACAACCATAAGTTGATATTTTTATAATCAGCAACTTAACCACAAAATGTGAATCGAGTATTTCAGCAAAACTACTGCAGTAAGAA	<	-10
AATGTTGTTGATGCAACCAGCCCTTGATATTTAATAATTATTTATAATCAGCAACTTAACCACAAAACAACCAGCGCGTGATATCTCACAAAACAACCAGCCTGTGATATTTTTGTGAATCGAGTATTTCAGCAAAACTACTGCAGTAAGAA	<	-10
TTTTGTGTTGAAACAACCATAAAGTGATAACAACGAATCAATTAAAATCATAGGCTTAATCGAAAAACAACCATATCTTGATATCGCATAAAACAACCATAAGTTGATATTTTGGTGAAAAGGATATTCCAACCTTCATAGTTTAGTAAGAA	=	-0.599
AATGTTGTTGAAACAACCATAAAGTGATAACAACGAATCAATTAAAATCATAGGCTTAATCGAAAAACAACCATATCTTGATATCGCACAAAACAACCATAAGTTGATATTTTTGTGAATCGAGTATTTCAGCAAAACTACTGCAGTAAGAA	=	-0.526
AATGTTGTTGATGCAACCATAAAGTGATATTTAAAATGTGAGCGAGTAACAACCCTTAACCACAAAACAACCATATATTGATATCTCACAAAACAACCATAAGTTGATATTTTTGTGAATCGAGTATTTCAGCAAAACTACTGCAGTAAGAA	=	-0.988
AATGTTGTTGATGCAACCATAAAGTGATATTTAATAATTATTTATAATCAGCAACTTAACCACAAAACAACCATATATTGATATCTCACAAAACAACCATAAGTGTCGCGGGGGTGTCCGATCTGATTTCAGCAAAACTACTGCAGTAAGAA	=	-1.82
AATGTTGTTGATGCAACCATAAAGTGATATTTAATAATTATTTATAATCAGCAACTTAACCACAAAACACCCATAAATTGATATTGCACAAAAGTTGGTATTCAACTATAAAATGTGAATCGAGTATTTCAGCAAAACTACTGCAGTAAGAA	=	-0.929
AATGTTGTTGATGCCCAACGCCCTGTCGCGGGCCGCCGGCGGGCGCCGACTACCAGGCCAACACCCCACCAACGCGCGGTCGCGAGACACCCCACCAACGCCTGGTCGCGGGGGTGTCCGATCTGATTTCAGCAAAACTACTGCAGTAAGAA	<	-10
AATGTTGTTGATGCAACCATAAAGTGATATTTAATAATTATTTATAATCAGCAACTTACAACCATATATTGATATCTCACCACAAAAACAAAACAACCATAAGTTGATATTTTTGTGAATCGAGTATTTCAGCAAAACTACTGCAGTAAGAA	=	0.226
AATGTTGTTGATGCAACCATAAAGTGATATTTAATAATTATTTATAATCAGCAACTTAACCACAACCATATATTGATATCTCACAAAACAACCATAAGTTGATATTTTCAAAATGTGAATCGAGTATTTCAGCAAAACTACTGCAGTAAGAA	=	-2.53
AATGTTGTTGATGCAACCATAAAGTGATATTTAATAATTATTTATAATCAGCAACTTAACCACAAAACAACCATCGCGGTCGCGAGACACCCCACCAACGCCTGGTCGCGGGGGTGTCCGATCTGATTTCAGCAAAACTACTGCAGTAAGAA	=	-3.94
AATGTTGTTGATGCAACCATAAAGTGATATTTAATAATTATTTATAATCAGCAACTTAACCACAAAACAACCATATATTGATATCTCACAAAACAAAACGCCTGGTCGCGGGGGTGTCCGATCTGATTTCAGCAAAACTACTGCAGTAAGAA	=	-0.638
AATGTTGTTGATGCAACCATAAAGTGATATTTAGCCGCTTCCGGGGCTGCCCTCTAAGCGCGAGCGCCAACCATATATTGATATCTCACAAAACAACCATAAGTTGATATTTTTGTGAATCGAGTATTTCAGCAAAACTACTGCAGTAAGAA	=	-0.565
AATGTTGTTGATGCAACCATAAAGTGATATTTAATAATTATTTATAATCAGCAACTTAACCACAAAACAACCATATATTGATATCTACAAAACAACCATAAGTTGATATTTTTGTGAATCGAGTATTTCAGCAAAACTACTGCAGTAAGAAA	=	-0.176
AATGTTGTTGATGCAACCATAAAGTGATATTTAATAATTATTTATAATCAGCAACTTAACCACAAAACAACCCGCGCGGTCGCGAGACACCCCACCAACGCCTGGTCGCGGGGGTGTCCGATCTGATTTCAGCAAAACTACTGCAGTAAGAA	=	-4.43
